- experimental-system: hGIPR (Homo sapiens)
- Sequence (P48546 22-466): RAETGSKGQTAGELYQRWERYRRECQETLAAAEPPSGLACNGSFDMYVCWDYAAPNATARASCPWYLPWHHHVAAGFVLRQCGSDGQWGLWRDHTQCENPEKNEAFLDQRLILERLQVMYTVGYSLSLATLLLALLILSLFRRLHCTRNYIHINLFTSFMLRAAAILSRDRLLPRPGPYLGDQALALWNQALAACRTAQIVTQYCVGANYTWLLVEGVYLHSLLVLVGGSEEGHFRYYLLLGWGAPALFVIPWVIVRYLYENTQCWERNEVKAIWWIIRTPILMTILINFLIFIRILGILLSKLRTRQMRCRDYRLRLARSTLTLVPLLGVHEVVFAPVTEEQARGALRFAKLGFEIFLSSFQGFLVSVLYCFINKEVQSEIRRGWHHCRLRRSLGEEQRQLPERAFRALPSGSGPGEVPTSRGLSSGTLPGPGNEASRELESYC
- procedure-summary: Functional cAMP activation in the presence of 0.1% casein (no HSA);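 further: intracellular cAMP rise after 30 min at 37 °C read by HTRF against a standard curve, scaled between buffer alone (0%) and top control ligand concentration (100%), four-parameter fit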
- Assay type: cell-based
- test-settings: in the presence of 0.1% casein (no HSA); geometric mean; read-out: Relative cAMP EC50, hGIPR
pEC50: −log10 of the molar value. Starred links: 1 amine or outer side, 2 acyl side, 3 side chain; linkers in the order of their positions; H or OH if unused. Non-standard residues stand in square brackets, D forms with d. Groups on a side chain read outwards from the residue. *: point of attachment. C20 diacid = O=C(O)CCCCCCCCCCCCCCCCCCC(=O)*; C18 diacid = O=C(O)CCCCCCCCCCCCCCCCC(=O)*; αMePhe(2-F) = C[C@](N)(Cc1ccccc1F)C(=O)O; γGlu = O=C(O)[C@H](CCC(=O)[*:2])N[*:1]; NMeY = CN[C@@H](Cc1ccc(O)cc1)C(=O)O; αMe4Pal = C[C@](N)(Cc1ccncc1)C(=O)O; αMeY = C[C@](N)(Cc1ccc(O)cc1)C(=O)O; αMeF = C[C@](N)(Cc1ccccc1)C(=O)O; 4Pal = N[C@@H](Cc1ccncc1)C(=O)O; αMeL = CC(C)C[C@](C)(N)C(=O)O; αMeS = C[C@](N)(CO)C(=O)O; Orn = NCCC[C@H](N)C(=O)O; AEEA = NCCOCCOCC(=O)O; Aib = CC(C)(N)C(=O)O
Respond with true for pEC50 values of 10 and above, false for values below.

1. H-Y[Aib]QGTFTSD[4Pal][αMeS]Q[αMeL]LD[Orn]K([dE-γGlu-C18 diacid])AQ[αMe4Pal]QFIQ[αMeY]LIE[Aib]GPSSGAPPPSGGGE-NH2 [Example 1186]; true
2. H-Y[Aib]QGTFTSD[4Pal]SQ[αMeL]LD[Orn]K([γGlu-γGlu-C18 diacid])AQ[αMe4Pal]AFI[dE][αMeY]LIEGGPSSGAPPPSGSEE-NH2 [Example 1044]; false
3. H-Y[Aib]QGTFTSD[4Pal]S[Orn][αMeL]LDKK([AEEA-γGlu-C18 diacid])AQ[Aib]AFIEYLLE[dA]GPSSGAPPPSG[4Pal]-NH2 [Example 274]; false
4. H-Y[Aib]QGT[αMePhe(2-F)]TSD[4Pal][αMeS]I[αMeL]LD[Orn]K([γGlu-γGlu-C18 diacid])AQ[αMe4Pal]EFI[dE][αMeY]LVEGGPSSGEPPPSGSE-NH2 [Example 1163]; true
5. H-Y[Aib]QGTFTSDFS[Orn][αMeL]LDKK([AEEA-γGlu-C20 diacid])AQ[Aib]AFIEWLLEGGPSSGAPPPSGS-NH2 [Example 78]; false
6. H-[NMeY][Aib]QGT[αMeF]TSDYSILLDKQAAK([AEEA-AEEA-γGlu-C20 diacid])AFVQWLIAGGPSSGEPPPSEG-NH2 [Example 301]; false
